FYI, the data here is from patent US6299906A.

- protocol: Solubility of drug substances in liquid carbon dioxide and dimethyl ether (HPLC or gravimetric)
- Type: physicochemical
- condition: liquid co2, organic solvent or mixture; CO2, 45° C./200 bar; read-out: solubility (CO2)
observable: solubility (µg/mL)

# molecule, solubility / µg/mL
rows = [
    ("O=C(NCCN1CCOCC1)c1ccc(Cl)cc1 [Moclobemide]", 3500),
    ("CC1=C(/C=C/C(C)=C/C=C/C(C)=C\\C(=O)O)C(C)(C)CCC1", 3000),
]

====

- protocol: Solubility of drug substances in liquid carbon dioxide and dimethyl ether (HPLC or gravimetric)
- Format: physicochemical
- condition: organic solvent or mixture; dimethyl ether, 20° C./4.5 bar; read-out: solubility (DME)
observable: solubility (mg/mL)
Give the quantity in mg/mL, number only.

Could you share which solubility value was measured for CCCCCCCCCCC[C@@H](C[C@@H]1OC(=O)[C@H]1CCCCCC)OC(=O)[C@H](CC(C)C)NC=O [Orlistat, Tetrahydrolipstatin] ? 178
